- experimental_parameters: in PEG-400, 318.15 K
assay_readout: solubility (mole fraction)
// print number alone

Exercise: Request the reported solubility (mole fraction) associated with CN(Cc1ccccc1)CN1C(=O)C(=NNC(=O)c2ccccc2OCc2ccccc2)c2ccccc21
Key: 0.0114

---

- experimental_parameters: in isopropanol, 318.15 K
assay_readout: solubility (mole fraction)
// print number alone

Exercise: Request the reported solubility (mole fraction) associated with CN(Cc1ccccc1)CN1C(=O)C(=NNC(=O)c2ccccc2OCc2ccccc2)c2ccccc21
Key: 0.000941

---

- experimental_parameters: in sec-butanol, 303.15 K
assay_readout: solubility (mole fraction)
// print number alone

Exercise: Request the reported solubility (mole fraction) associated with CN(Cc1ccccc1)CN1C(=O)C(=NNC(=O)c2ccccc2OCc2ccccc2)c2ccccc21
Key: 0.000968

meta.source: BigSolDB 2.1
